# credit: ChEMBL document CHEMBL1153218

Test: Inhibition of HIV1 envelope gp41-mediated fusion of CHO cells expressing HIV1 envelope with calcein-AM labeled SupT1 cells by fluorescence assay
Format: cell-based, Human immunodeficiency virus 1
OBSERVATION_TYPE: EC50 (µM)
Reply with just the number (in µM).

EC50 for COc1ccc(-c2ccc(CN(C(=O)c3cc(C(=O)O)c(C(=O)O)cc3C(=O)O)[C@H]3CCCc4ccccc43)cc2)cc1 ? 14

What do you get for CC(=O)N[C@H](CCCCN)C(=O)N[C@H](CCCCN)C(=O)NCC(=O)N[C@H](C)C(=O)N[C@@H]1CSSC[C@H](C(=O)N[C@H](C)C(=O)N[C@H](C)C(N)=O)NC(=O)[C@@H](CC(C)C)NC(=O)[C@@H](Cc2c[nH]c3ccccc23)NC(=O)[C@@H](C)NC(=O)[C@@H](Cc2c[nH]c3ccccc23)NC(=O)[C@@H](CCC(=O)O)NC(=O)[C@@H](Cc2c[nH]c3ccccc23)NC(=O)CNC(=O)[C@@H](CC(C)C)NC(=O)[C@@H](CC(C)C)NC(=O)[C@@H](CCC(=O)O)NC1=O ? 19

Field entry: O=C(O)c1cc(C(=O)O)c(C(=O)N(Cc2ccc(-c3ccccc3Cl)cc2)[C@H]2CCCc3ccccc32)cc1C(=O)O 9

Follow-up entry: O=C(O)c1cc(C(=O)O)c(C(=O)N(Cc2cccc(Oc3ccccc3)c2)[C@H]2CCCc3ccccc32)cc1C(=O)O 13

And the next one, O=C(O)c1ccccc1C(=O)N(Cc1cccc(Oc2ccccc2)c1)CC12CC3CC(CC(C3)C1)C2 ? 7

Would you mind doing O=C(O)c1ccc(C(=O)N(Cc2cccc(Oc3ccccc3)c2)[C@H]2CCCc3ccccc32)cc1C(=O)O as well? 34

Next compound: O=C(O)c1cc(C(=O)O)c(C(=O)N(Cc2ccc3c(c2)Cc2ccccc2-3)[C@H]2CCCc3ccccc32)cc1C(=O)O 26

Quick one: O=C(O)c1ccccc1C(=O)N(Cc1ccc(-c2ccccc2)cc1)[C@H]1CCCc2ccccc21 16

Next: O=C(O)c1cc(C(=O)O)c(C(=O)N(Cc2ccc(-c3cc(Cl)cc(Cl)c3)cc2)[C@H]2CCCc3ccccc32)cc1C(=O)O 4

Now give it for O=C(O)c1ccccc1C(=O)N(Cc1cccc(Oc2ccc(Cl)cc2)c1)[C@H]1CCCc2ccccc21 too. 3

Try the compound O=C(O)c1cc(C(=O)O)cc(C(=O)N(Cc2cccc(Oc3ccccc3)c2)[C@H]2CCCc3ccccc32)c1 41
